Provenance of the data: patent US20190135818A1

For each record, write down the corresponding pIC50.
Target: FGFR1 (Homo sapiens, UniProt P11362)
Construct: The reaction was initiated by addition of FGFR kinase domain recombinant protein diluted with 49 μL of reaction buffer
Sequence (P11362 478-767 limits assumed): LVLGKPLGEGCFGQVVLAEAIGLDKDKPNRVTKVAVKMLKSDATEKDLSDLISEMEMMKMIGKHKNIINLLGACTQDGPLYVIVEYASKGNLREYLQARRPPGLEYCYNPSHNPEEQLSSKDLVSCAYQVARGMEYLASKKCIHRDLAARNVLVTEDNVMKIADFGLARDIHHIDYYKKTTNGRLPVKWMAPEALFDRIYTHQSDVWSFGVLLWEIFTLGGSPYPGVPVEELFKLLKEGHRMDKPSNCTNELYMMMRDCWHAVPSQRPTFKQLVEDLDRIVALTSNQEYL
Assay: FGFR kinase inhibitory activity experiment (ELISA, Poly(Glu,Tyr)4:1 substrate)
Conditions: kinase recombinant protein FGFR1, ATP 5 μM
pIC50: −log10 of the molar value.

Recorded results for 5 molecules are shown here.
molecule="C=CC(=O)Nc1ccc(-n2nc3c(=O)[nH]nc(N)c3c2-c2oc3ccc(C)cc3c2C)cc1N(C)CCN(C)C [Compound A32]" result_type=pIC50 recorded_result="> 7.00"
molecule="Cc1ccc2oc(-c3c4c(N)n[nH]c(=O)c4nn3-c3ccc(NC(=O)/C=C/CN4CCC4)cc3)c(C)c2c1 [Compound A27]" result_type=pIC50 recorded_result="> 7.00"
molecule="CCN1CCC(n2nc3c(=O)[nH]nc(N)c3c2-c2oc3ccc(Cl)cc3c2C)CC1 [Compound A23]" result_type=pIC50 recorded_result="> 7.00"
molecule="Cc1ccc2oc(-c3c4c(N)n[nH]c(=O)c4nn3-c3ccc(N(C)CCN(C)C)cc3)c(C)c2c1 [Compound A11]" result_type=pIC50 recorded_result="> 7.00"
molecule="C=CC(=O)N1CCCC(n2nc3c(=O)[nH]nc(N)c3c2-c2oc3ccc(OC)cc3c2C)C1 (stereo not drawn) [Compound A79]" result_type=pIC50 recorded_result="> 7.00"

Below are 8 molecules. Give each one its pIC50.
1. CCC(=O)N1CCC(n2nc3c(=O)[nH]nc(N)c3c2-c2oc3ccc(Cl)cc3c2C)CC1 [Compound A41]
2. C=CC(=O)N1CCC(n2nc3c(=O)[nH]nc(N)c3c2-c2oc3ccc(C)cc3c2C)C1 (stereo not drawn) [Compound A51]
3. C=CC(=O)N1CCC(n2nc3c(=O)[nH]nc(N)c3c2-c2oc3ccc(Cl)cc3c2C)CC1 [Compound A86]
4. C=CC(=O)N1CCC(n2nc3c(=O)[nH]nc(N)c3c2-c2oc3cc(Cl)ccc3c2C)CC1 [Compound A84]
5. C=C(C#N)C(=O)N1CCC(n2nc3c(=O)[nH]nc(N)c3c2-c2oc3ccc(C)cc3c2C)CC1 [Compound A55]
6. C=CC(=O)NC1CCC(n2nc3c(=O)[nH]nc(N)c3c2-c2oc3ccc(C)cc3c2C)CC1 (stereo not drawn) [Compound A88]
7. Cc1c(-c2c3c(N)n[nH]c(=O)c3nn2C2CCN(C(=O)/C=C/CNC3CC3)CC2)oc2ccc(Cl)cc12 [Compound A56]
8. C=CC(=O)N1CCC(n2nc3c(=O)[nH]nc(N)c3c2-c2oc3cc(C)ccc3c2C)CC1 [Compound A82]

Reply:
1. > 7.00
2. > 7.00
3. > 7.00
4. > 7.00
5. > 7.00
6. > 7.00
7. > 7.00
8. > 7.00

Each of the following entries comes with a recorded value; kindly state pIC50 for each.
1. C=CC(=O)N1CCCC(n2nc3c(=O)[nH]nc(N)c3c2-c2oc3ccc(C)cc3c2C)C1 (stereo not drawn) [Compound A40]
2. C=CC(=O)N1CCC(n2nc3c(=O)[nH]nc(N)c3c2-c2oc3cc(F)ccc3c2C)CC1 [Compound A83]
3. Cc1ccc2oc(-c3c4c(N)n[nH]c(=O)c4nn3C3CCN(C(=O)/C=C/CN4CCC4)CC3)c(C)c2c1 [Compound A31]
4. CCN1CCC(n2nc3c(=O)[nH]nc(N)c3c2-c2oc3ccc(C)cc3c2C)CC1 [Compound A24]
5. Cc1c(-c2c3c(N)n[nH]c(=O)c3nn2-c2ccccc2)oc2ccc(Cl)cc12 [Compound A7]
6. C=CC(=O)N1CCC(n2nc3c(=O)[nH]nc(N)c3c2-c2oc3ccc(C)cc3c2C)CC1 [Compound A29]

Reply:
1: > 7.00; 2: > 7.00; 3: > 7.00; 4: > 7.00; 5: > 7.00; 6: > 7.00

// for each molecule below, give its pIC50
1. C=CC(=O)N1CCC(n2nc3c(=O)[nH]nc(N)c3c2-c2oc3ccc(C)cc3c2CC)CC1 [Compound A85]
2. Cc1ccc2oc(-c3c4c(N)n[nH]c(=O)c4nn3C3CCN(C(=O)/C=C/CN(C)C)CC3)c(C)c2c1 [Compound A30]
3. Cc1ccc2oc(-c3c4c(N)n[nH]c(=O)c4nn3C3CCN(CCN(C)C)CC3)c(C)c2c1 [Compound A36]
4. CCC(=O)N1CCC(n2nc3c(=O)[nH]nc(N)c3c2-c2oc3ccc(C)cc3c2C)CC1 [Compound A10]
5. Cc1ccc2oc(-c3c4c(N)n[nH]c(=O)c4nn3C3CCC(NC(=O)CN(C)C)CC3)c(C)c2c1 (stereo not drawn) [Compound A35]
6. C=CC(=O)N1CCC(Cn2nc3c(=O)[nH]nc(N)c3c2-c2oc3ccc(C)cc3c2C)CC1 [Compound A38]
7. C=C(F)C(=O)N1CCC(n2nc3c(=O)[nH]nc(N)c3c2-c2oc3ccc(C)cc3c2C)C1 (stereo not drawn) [Compound A52]

Reply:
1: > 7.00; 2: > 7.00; 3: > 7.00; 4: > 7.00; 5: > 7.00; 6: > 7.00; 7: > 7.00

Take each entry in turn and give its pIC50.
1. Cc1c(-c2c3c(N)n[nH]c(=O)c3nn2-c2ccccc2)oc2cc(F)ccc12 [Compound A8]
2. Cc1ccc2oc(-c3c4c(N)n[nH]c(=O)c4nn3-c3ccc(NCN(C)C)cc3)c(C)c2c1 [Compound A9]
3. Cc1ccc2oc(-c3c4c(N)n[nH]c(=O)c4nn3C3CCN(C(=O)/C=C/CN(C)C4CC4)CC3)c(C)c2c1 [Compound A34]
4. C=CC(=O)N1CCC(n2nc3c(=O)[nH]nc(N)c3c2-c2oc3ccc(F)cc3c2C)CC1 [Compound A80]

Reply:
1. > 7.00
2. > 7.00
3. > 7.00
4. 6.00 to 7.00
